# System: Colo 205 (colon cancer) cell line
# Procedure Summary: cells
# Format: cell-based
# Measurement Parameters: human, 48 h

| Molecule | CC50 |
| --- | --- |
| COc1cc2c(cc1OCCCCN1CCN(CCCCOc3ccc(-c4nc5ccccc5s4)cc3)CC1)N=C[C@@H]1CCCN1C2=O [Compound 9e] | > 100 µM |

---

# Test system: A 2780 (ovary cancer) cell line
# Procedure Summary: cells
# Type: cell-based
# Measurement Parameters: Homo sapiens, A2780, 48 h, read-out: LC50 A 2780, 50% cell death; 48 h drug exposure, SRB
Below: a set of entries, each annotated with reported CC50.

| Molecule | CC50 [µM] |
| --- | --- |
| COc1cc(-c2nc3ccccc3s2)ccc1OCCCCN1CCN(CCCCOc2cc3c(cc2OC)C(=O)N2CCC[C@H]2C=N3)CC1 [Compound 9f] | 0.089 |
| COc1cc2c(cc1OCCCN1CCN(CCCOc3ccc(-c4nc5ccccc5o4)cc3)CC1)N=C[C@@H]1CCCN1C2=O [Compound 9i] | 2.25 |
| COc1cc2c(cc1OCCCCN1CCN(CCCCOc3cccc(-c4nc5ccccc5s4)c3)CC1)N=C[C@@H]1CCCN1C2=O [Compound 9h] | 2.3 |
| COc1cc2c(cc1OCCCN1CCN(CCCOc3cccc(-c4nc5ccccc5s4)c3)CC1)N=C[C@@H]1CCCN1C2=O [Compound 9d] | 2.4 |
| COc1cc2c(cc1OCCCCN1CCN(CCCCOc3ccc(-c4nc5ccccc5s4)cc3)CC1)N=C[C@@H]1CCCN1C2=O [Compound 9l] | 2.1 |
| COc1cc2c(cc1OCCCN1CCN(CCCOc3ccc(-c4nc5ccc(F)cc5s4)cc3)CC1)N=C[C@@H]1CCCN1C2=O [Compound 9c] | 2.3 |
| COc1cc(-c2nc3ccccc3s2)ccc1OCCCN1CCN(CCCOc2cc3c(cc2OC)C(=O)N2CCC[C@H]2C=N3)CC1 [Compound 9b] | 0.12 |
| COc1cc2c(cc1OCCCCN1CCN(CCCCOc3ccc(-c4nc5ccc(F)cc5s4)cc3)CC1)N=C[C@@H]1CCCN1C2=O [Compound 9g] | 2.25 |
| COc1cc2c(cc1OCCCN1CCN(CCCOc3ccc(-c4nc5ccccc5s4)cc3)CC1)N=C[C@@H]1CCCN1C2=O [Compound 9a] | 23 |
| COc1cc2c(cc1OCCCN1CCN(CCCOc3cccc(-c4nc5ccccc5o4)c3)CC1)N=C[C@@H]1CCCN1C2=O [Compound 9k] | 2.16 |
| COc1cc(-c2nc3ccccc3o2)ccc1OCCCN1CCN(CCCOc2cc3c(cc2OC)C(=O)N2CCC[C@H]2C=N3)CC1 [Compound 9j] | 0.139 |

---

# Tested on: PC 3 (prostate cancer) cell line
# Procedure Summary: cells
# Type: cell-based
# Measurement Parameters: Homo sapiens, 48 h, read-out: GI50 PC 3
Overview of recorded GI50 for various compounds

| Compound | Target Under Test | GI50 |
| --- | --- | --- |
| COc1cc(-c2nc3ccccc3s2)ccc1OCCCCN1CCN(CCCCOc2cc3c(cc2OC)C(=O)N2CCC[C@H]2C=N3)CC1 [Compound 9f] | PC 3 (prostate cancer) cell line | < 10 nM |
| COc1cc2c(cc1OCCCCN1CCN(CCCCOc3cccc(-c4nc5ccccc5s4)c3)CC1)N=C[C@@H]1CCCN1C2=O [Compound 9h] | PC 3 (prostate cancer) cell line | 140 nM |
| COc1cc2c(cc1OCCCCN1CCN(CCCCOc3ccc(-c4nc5ccccc5s4)cc3)CC1)N=C[C@@H]1CCCN1C2=O [Compound 9e] | PC 3 (prostate cancer) cell line | < 10 nM |
| COc1cc(-c2nc3ccccc3s2)ccc1OCCCN1CCN(CCCOc2cc3c(cc2OC)C(=O)N2CCC[C@H]2C=N3)CC1 [Compound 9b] | PC 3 (prostate cancer) cell line | < 10 nM |
| COc1cc2c(cc1OCCCN1CCN(CCCOc3ccc(-c4nc5ccccc5o4)cc3)CC1)N=C[C@@H]1CCCN1C2=O [Compound 9i] | PC 3 (prostate cancer) cell line | < 10 nM |
| COc1cc2c(cc1OCCCN1CCN(CCCOc3cccc(-c4nc5ccccc5s4)c3)CC1)N=C[C@@H]1CCCN1C2=O [Compound 9d] | PC 3 (prostate cancer) cell line | < 10 nM |
| COc1cc2c(cc1OCCCCN1CCN(CCCCOc3ccc(-c4nc5ccc(F)cc5s4)cc3)CC1)N=C[C@@H]1CCCN1C2=O [Compound 9g] | PC 3 (prostate cancer) cell line | 160 nM |
| COc1cc(-c2nc3ccccc3o2)ccc1OCCCN1CCN(CCCOc2cc3c(cc2OC)C(=O)N2CCC[C@H]2C=N3)CC1 [Compound 9j] | PC 3 (prostate cancer) cell line | < 10 nM |
| COc1cc2c(cc1OCCCN1CCN(CCCOc3ccc(-c4nc5ccccc5s4)cc3)CC1)N=C[C@@H]1CCCN1C2=O [Compound 9a] | PC 3 (prostate cancer) cell line | 120 nM |
| COc1cc2c(cc1OCCCN1CCN(CCCOc3cccc(-c4nc5ccccc5o4)c3)CC1)N=C[C@@H]1CCCN1C2=O [Compound 9k] | PC 3 (prostate cancer) cell line | < 10 nM |
| COc1cc2c(cc1OCCCN1CCN(CCCOc3ccc(-c4nc5ccc(F)cc5s4)cc3)CC1)N=C[C@@H]1CCCN1C2=O [Compound 9c] | PC 3 (prostate cancer) cell line | 110 nM |

---

# Tested on: A 2780 (ovary cancer) cell line
# Procedure Summary: cells
# Format: cell-based
# Measurement Parameters: human, 48 h

| Compound | CC50 / nM |
| --- | --- |
| COc1cc2c(cc1OCCCCN1CCN(CCCCOc3ccc(-c4nc5ccccc5s4)cc3)CC1)N=C[C@@H]1CCCN1C2=O [Compound 9e] | 2200 |

---

# Tested on: MCF 7 (breast cancer) cell line
# Procedure Summary: cells
# Format: cell-based
# Measurement Parameters: human, 48 h

| Input Smiles | Target Under Test | Unit Annotation | CC50 |
| --- | --- | --- | --- |
| COc1cc2c(cc1OCCCCN1CCN(CCCCOc3ccc(-c4nc5ccccc5s4)cc3)CC1)N=C[C@@H]1CCCN1C2=O | MCF 7 (breast cancer) cell line | nM | 150 |

---

# Tested on: eight tumour cells lines derived from seven cancer types

| Molecule | Target Under Test | GI50 |
| --- | --- | --- |
| COc1cc2c(cc1OCCCCN1CCN(CCCCOc3ccc(-c4nc5ccccc5s4)cc3)CC1)N=C[C@@H]1CCCN1C2=O [Compound 9l] | eight tumour cells lines derived from seven cancer types | ≤ 125 nM |
| COc1cc(-c2nc3ccccc3o2)ccc1OCCCN1CCN(CCCOc2cc3c(cc2OC)C(=O)N2CCC[C@H]2C=N3)CC1 [Compound 9j] | eight tumour cells lines derived from seven cancer types | ≤ 110 nM |
| COc1cc(-c2nc3ccccc3s2)ccc1OCCCCN1CCN(CCCCOc2cc3c(cc2OC)C(=O)N2CCC[C@H]2C=N3)CC1 [Compound 9f] | eight tumour cells lines derived from seven cancer types | < 10 nM |
| COc1cc2c(cc1OCCCN1CCN(CCCOc3ccc(-c4nc5ccc(F)cc5s4)cc3)CC1)N=C[C@@H]1CCCN1C2=O [Compound 9c] | eight tumour cells lines derived from seven cancer types | ≤ 130 nM |
| COc1cc2c(cc1OCCCCN1CCN(CCCCOc3ccc(-c4nc5ccc(F)cc5s4)cc3)CC1)N=C[C@@H]1CCCN1C2=O [Compound 9g] | eight tumour cells lines derived from seven cancer types | ≤ 168 nM |
| COc1cc2c(cc1OCCCN1CCN(CCCOc3cccc(-c4nc5ccccc5o4)c3)CC1)N=C[C@@H]1CCCN1C2=O [Compound 9k] | eight tumour cells lines derived from seven cancer types | ≤ 170 nM |
| COc1cc(-c2nc3ccccc3s2)ccc1OCCCN1CCN(CCCOc2cc3c(cc2OC)C(=O)N2CCC[C@H]2C=N3)CC1 [Compound 9b] | eight tumour cells lines derived from seven cancer types | ≤ 120 nM |
| COc1cc2c(cc1OCCCN1CCN(CCCOc3cccc(-c4nc5ccccc5s4)c3)CC1)N=C[C@@H]1CCCN1C2=O [Compound 9d] | eight tumour cells lines derived from seven cancer types | ≤ 120 nM |
| COc1cc2c(cc1OCCCN1CCN(CCCOc3ccc(-c4nc5ccccc5s4)cc3)CC1)N=C[C@@H]1CCCN1C2=O [Compound 9a] | eight tumour cells lines derived from seven cancer types | ≤ 130 nM |
| COc1cc2c(cc1OCCCN1CCN(CCCOc3ccc(-c4nc5ccccc5o4)cc3)CC1)N=C[C@@H]1CCCN1C2=O [Compound 9i] | eight tumour cells lines derived from seven cancer types | ≤ 117 nM |
